- target-entity: T1, human TREM2 on BWZ cells (human, UniProt Q9NZC2 19-230)
- T1 construct: whole, on cells; not tied to the cell line; also called BWZ Human TREM2
- T1 sequence (looked up): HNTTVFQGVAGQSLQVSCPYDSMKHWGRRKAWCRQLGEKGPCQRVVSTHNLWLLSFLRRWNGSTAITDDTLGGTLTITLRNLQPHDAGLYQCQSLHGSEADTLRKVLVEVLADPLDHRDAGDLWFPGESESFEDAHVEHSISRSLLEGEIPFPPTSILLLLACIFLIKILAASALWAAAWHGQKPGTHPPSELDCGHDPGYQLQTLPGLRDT
- experiment-description: FACS, BWZ cells
experimental-readout: binding result

T1-16 (antibody, IgG1, V domains shown, huIgG1; also called TI-16; ADI-19083) VH: EVQLVESGGGLVQPGRSLRLSCAASGFTFDDYAMHWVRQAPGKGLEWVSGISWNSGSIGYADSVKGRFTISRDNAKNSLYLQMNSLRAEDTALYYCAKGPRMSGWWADWGQGTLVTVSS VL: DIQMTQSPSSVSASVGDRVTITCRASQGISSWLAWYQQKPGKAPKLLIYAASSLQSGVPSRFSGSGSGTDFTLTISSLQPEDFATYYCQQADTLPITFGGGTKVEIK = no binding
T1-75 (antibody, IgG1, V domains shown, huIgG1; also called TI-75; ADI-19152) VH: QVQLVESGGGLVQPGRSLRLSCAASGFTFDDYAMHWVRQAPGKGLEWVSGISWNSGDIGYADSVKGRFTISRDNAKNSLYLQMNSLRAEDTALYYCAKAPRTRWTYFDYWGQGTLVTVSS VL: EIVLTQSPATLSLSPGERATLSCRASQSVSSYLAWYQQKPGQAPRLLIYDASNRATGIPARFSGSGSGTDFTLTISSLEPEDFAVYYCQHYNLWRTFGGGTKVEIK = no binding
T1-19 (antibody, IgG1, V domains shown, huIgG1; also called TI-19; ADI-19086) VH: EVQLVESGGGLVQPGGSLRLSCAASGFTFSDHHMDWVRQAPGKGLEWVGRTRNKANSYTTEYAASVKGRFTISRDDSKNSLYLQMNSLKTEDTAVYYCARGPLGYKLWGQGTLVTVSS VL: DIQMTQSPSSVSASVGDRVTITCRASQGISSWLAWYQQKPGKAPKLLIYAASNLQSGVPSRFSGSGSGTDFTLTISSLQPEDFATYYCQQANSFPLTFGGGTKVEIK = no binding
